Listing of entries alongside the reported MIC.
System: Streptococcus sanguinis (ATCC 10557)
PROCEDURE TEXT: Antibacterial broth microdilution (MIC/MBC), S. sanguinis
DETAILS: ATCC10557, 24 h, read-out: Ss MIC, Streptococcus sanguinis, broth microdilution, 24 h, tested 3.9 to 500 µM

[
  {
    "COMPOUND": "Nc1cccc(C(=O)/C=C/C=C/c2ccccc2)c1",
    "MIC": "> 500 µM"
  },
  {
    "COMPOUND": "CC1(C)S[C@@H]2[C@H](NC(=O)Cc3ccccc3)C(=O)N2[C@H]1C(=O)O [PEN, Penicillin G, reference compound]",
    "MIC": "0.4 µM"
  },
  {
    "COMPOUND": "[H]/N=C(\\N/C(=N/[H])NCCCCCCNC(=N)NC(=N)Nc1ccc(Cl)cc1)Nc1ccc(Cl)cc1 [CHX, chlorhexidine, reference compound]",
    "MIC": "4.7 µM"
  },
  {
    "COMPOUND": "O=C(/C=C/C=C/c1ccccc1)c1cccc(O)c1",
    "MIC": "77.9 µM"
  },
  {
    "COMPOUND": "O=C(/C=C/C=C/c1ccccc1)c1ccccc1",
    "MIC": "> 500 µM"
  },
  {
    "COMPOUND": "COc1ccc(C(=O)/C=C/C=C/c2ccccc2)cc1",
    "MIC": "≥ 296 µM"
  },
  {
    "COMPOUND": "COc1cccc(C(=O)/C=C/C=C/c2ccccc2)c1",
    "MIC": "≥ 296 µM"
  }
]

The record that follows has no MIC shown yet.
Which MIC is reported for this compound? Cc1cccc(C(=O)/C=C/C=C/c2ccccc2)c1
> 500 µM
